Data origin: the supplement of paper PMC9233669

Consider the following sequences; for each one, report its self-aminoacylation.
# System: biotinyl-Leu-oxazolone
# test description: self-aminoacylation, catalytic enhancement (BLO) (fold over background); higher = more active; k-Seq, kA / k0A0; sequences stand for … in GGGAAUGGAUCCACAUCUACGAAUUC…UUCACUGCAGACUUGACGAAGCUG
Fewer inactive variants are shown than the library holds.
Answers are plain numbers.

monomer_sequence="AAGUUUUCUAAGAGUCGCAAG [Fam3.1 aminoacylation ribozyme variant]" readout_type=self-aminoacylation measured=1.62
monomer_sequence="AUUACUCUGGUCCUCGAGUGA [Fam2.1 aminoacylation ribozyme variant]" readout_type=self-aminoacylation measured=4.34
monomer_sequence="AUUCACCUAGGUCACCGGGCG [Fam2.2 aminoacylation ribozyme variant]" readout_type=self-aminoacylation measured=4.7
monomer_sequence="CCAAACUUCAAGCAAUCGGAC [Fam1B.1 aminoacylation ribozyme variant]" readout_type=self-aminoacylation measured=0.789
monomer_sequence="CUAAUUCAAACAAUCGGUCAG [Fam1A.1 aminoacylation ribozyme variant]" readout_type=self-aminoacylation measured=0.566

For every item in the list below, what is its measured self-aminoacylation?
1. ACCCACCUAGGUCAUCGGGUG [Fam2.2 aminoacylation ribozyme variant]
2. AUUUCCCUGGUCACCGAGUGA [Fam2.1 aminoacylation ribozyme variant]
3. CUACUACAAACAAUCGGUCUC [Fam1A.1 aminoacylation ribozyme variant]
4. AUUCAUCAAGGUCAUCGGGUG [Fam2.2 aminoacylation ribozyme variant]
5. AUUACACUGGUCAGCGAGUGA [Fam2.1 aminoacylation ribozyme variant]

[5.88, 8.24, 0.418, 10.9, 5.37]
